Target: full-length beta-Catenin (Uniprot ID P35222) (Homo sapiens, UniProt P35222)
Construct: 10 nM full-length beta-Catenin (Uniprot ID P35222)
Sequence (P35222 1-781): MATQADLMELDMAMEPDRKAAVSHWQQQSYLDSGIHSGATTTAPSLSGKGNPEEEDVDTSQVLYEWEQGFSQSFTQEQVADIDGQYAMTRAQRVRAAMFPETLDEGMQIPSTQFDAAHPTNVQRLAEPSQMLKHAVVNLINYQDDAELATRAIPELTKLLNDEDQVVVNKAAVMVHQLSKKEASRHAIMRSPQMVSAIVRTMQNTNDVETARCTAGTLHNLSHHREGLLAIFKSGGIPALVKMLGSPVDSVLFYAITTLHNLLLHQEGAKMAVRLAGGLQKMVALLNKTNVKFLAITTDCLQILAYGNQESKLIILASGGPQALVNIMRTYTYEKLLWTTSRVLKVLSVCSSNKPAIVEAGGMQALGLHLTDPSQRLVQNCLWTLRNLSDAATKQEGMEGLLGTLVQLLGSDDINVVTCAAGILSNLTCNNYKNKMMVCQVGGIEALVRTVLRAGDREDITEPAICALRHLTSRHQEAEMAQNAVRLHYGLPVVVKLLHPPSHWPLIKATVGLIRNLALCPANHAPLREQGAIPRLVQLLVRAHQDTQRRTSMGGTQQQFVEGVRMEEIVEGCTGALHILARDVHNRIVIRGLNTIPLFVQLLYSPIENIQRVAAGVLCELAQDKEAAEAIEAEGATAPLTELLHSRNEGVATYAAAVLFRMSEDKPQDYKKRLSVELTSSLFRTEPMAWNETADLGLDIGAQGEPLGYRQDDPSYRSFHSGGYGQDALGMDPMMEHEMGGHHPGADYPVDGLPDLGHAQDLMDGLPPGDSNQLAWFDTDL
Assay: Fluorescence polarization IC50 (beta-catenin / 5FAM-TCF4 10-53 competition)
Assay type: binding
Conditions: fluorescence polarization; read-out: beta-Catenin FP IC50
Give measured pIC50 for each item. Keep answers brief.
Answers are plain numbers, as −log10 of the molar value.

The measured pIC50 associated with CC(=O)N1CCC[C@]12CC=CCCCC1(CCCC=CCCCCOC(=O)N3CC(C(=O)N[C@@H](Cc4ccsc4)C(=O)N[C@@H](Cc4csc5ccccc45)C(=O)N[C@@H](CCC(N)=O)C(N)=O)(C3)NC(=O)[C@H](CC(C)C)NC(=O)[C@H](Cc3ccccc3)NC(=O)[C@H](C)NC(=O)C(C)(C)NC(=O)[C@H](Cc3cccc(C(=O)O)c3)NC(=O)[C@H](CC(=O)O)NC1=O)NC(=O)[C@H](CC(C)(C)C)NC(=O)[C@H](CC(=O)O)NC2=O (some centres unmarked) [I-2618] reads 7.11

The measured pIC50 associated with CC(=O)N1CCC[C@]12CC=CCCCC1(CCCC=CCCCOC(=O)N3CC[C@@](C(=O)N[C@@H](Cc4ccccc4)C(=O)N[C@@H](Cc4csc5ccccc45)C(=O)N[C@@H](CC(=O)N4CCOCC4)C(N)=O)(C3)NC(=O)[C@H](CC(C)C)NC(=O)[C@H](Cc3ccccc3)NC(=O)[C@H](C)NC(=O)[C@H](CCCCNS(C)(=O)=O)NC(=O)[C@H](CCC(N)=O)NC(=O)[C@H](CC(=O)O)NC1=O)NC(=O)[C@H](CC1CCCCC1)NC(=O)[C@H](CC(N)=O)NC2=O (some centres unmarked) [I-2524] reads 6.22

The measured pIC50 associated with CC(=O)N1CCC[C@]12CC=CCCCC1(CCCC=CCCCCCC[C@@](C)(C(=O)N[C@@H](Cc3ccccc3C(F)(F)F)C(=O)N[C@@H](Cc3csc4ccccc34)C(=O)N[C@@H](CCC(N)=O)C(N)=O)NC(=O)[C@H](CCO)NC(=O)[C@H](Cc3ccccc3)NC(=O)[C@H](C)NC(=O)[C@H](C)NC(=O)[C@H](CC(=O)O)NC(=O)[C@H](CC(=O)O)NC1=O)NC(=O)[C@H](CC(C)(C)C)NC(=O)[C@H](CC(=O)O)NC2=O (some centres unmarked) [I-1397] reads 7.32

Provide pIC50 for all items below, preserving their order.
1. CC(=O)N1CCC[C@]12CC=CCCCC1(CCCC=CCCCOC(=O)N3CC[C@@](C(=O)N[C@@H](Cc4ccccc4C(F)(F)F)C(=O)N[C@@H](Cc4csc5ccccc45)C(=O)N[C@@H](CCC(N)=O)C(N)=O)(C3)NC(=O)[C@H](Cc3ccccc3)NC(=O)[C@H](Cc3ccccc3)NC(=O)[C@H](C)NC(=O)[C@H](C)NC(=O)[C@H](CC(=O)O)NC(=O)[C@H](CC(=O)O)NC1=O)NC(=O)[C@H](CC(C)(C)C)NC(=O)[C@H](CC(=O)O)NC2=O (some centres unmarked) [I-1319]
2. CC(=O)N1CCC[C@]12CC=CCCCC1(CCCC=CCCCCCC[C@@](C)(C(=O)N[C@@H](Cc3ccccc3)C(=O)N[C@@H](Cc3csc4ccccc34)C(=O)N[C@@H](Cc3c[nH]cn3)C(N)=O)NC(=O)[C@H](CC(N)=O)NC(=O)[C@H](Cc3ccccc3)NC(=O)[C@H](C)NC(=O)[C@H](C)NC(=O)[C@H](CC(=O)O)NC(=O)[C@H](CC(=O)O)NC1=O)NC(=O)[C@H](CCC(C)C)NC(=O)[C@H](CC(=O)O)NC2=O (some centres unmarked) [I-583]

8.00
7.16

====

assay: CHI Log D procedure; assay type: physicochemical; conditions: pH 7.4, CHI Log D
Quantity Measured: chromatographic logD
Give bare numbers.

Check out these entries, answers already filled in.
The measured chromatographic logD associated with CC(=O)N[C@@H](Cc1ccccc1)C(=O)N[C@@H](CC(=O)O)C(=O)N[C@@H](C)C(=O)N[C@]1(C)CCCCCC=CCOC(=O)N2CC(C(=O)N[C@@H](Cc3ccccc3)C(=O)N[C@@H](Cc3c[nH]c4ccccc34)C(=O)N[C@@H](CCC(N)=O)C(N)=O)(C2)NC(=O)[C@H](C(C)C)NC(=O)[C@H](Cc2ccccc2)NC(=O)[C@H](C)NC(=O)[C@H](C)NC(=O)[C@H](CC(=O)O)NC(=O)[C@H](CC(=O)O)NC1=O reads 1.21

The measured chromatographic logD associated with CC(=O)N[C@@H](Cc1ccccc1)C(=O)N[C@@H](CC(=O)O)C(=O)N[C@@H](C)C(=O)N[C@]1(C)CCCCCCC=CCOC(=O)N2CC[C@@](C(=O)N[C@@H](Cc3ccccc3)C(=O)N[C@@H](Cc3c[nH]c4ccccc34)C(=O)N[C@@H](CCC(N)=O)C(N)=O)(C2)NC(=O)[C@H](C(C)C)NC(=O)[C@H](Cc2ccccc2)NC(=O)[C@H](C)NC(=O)[C@H](C)NC(=O)[C@H](CCC(C)C)NC(=O)[C@H](CC(=O)O)NC1=O (single isomer, unassigned) reads 2.1

Read the next record carefully.
The measured chromatographic logD associated with CC(=O)N1CCC[C@]12CC=CCCCC1(CCCC=CCCCCCC[C@@](C)(C(=O)N[C@@H](Cc3ccccc3)C(=O)N[C@@H](Cc3csc4ccccc34)C(=O)N[C@@H](Cc3c[nH]cn3)C(N)=O)NC(=O)[C@H](CCC(N)=O)NC(=O)[C@H](Cc3ccccc3)NC(=O)[C@H](C)NC(=O)[C@H](C)NC(=O)[C@H](CN(CC(=O)O)CC(F)(F)F)NC(=O)[C@H](CC(=O)O)NC1=O)NC(=O)[C@H](C)NC(=O)[C@H](CC(=O)O)NC2=O (stereo partly drawn) reads 2.17

====

Give measured Solubility for each item. Keep answers brief.
test: Solubility in PBS; type: physicochemical
Numbers only, in µM.

The measured Solubility associated with CC(=O)N1CCC[C@]12CC=CCCCC1(CCCC=CCCCCCC[C@@](C)(C(=O)N[C@@H](Cc3ccsc3)C(=O)N[C@@H](Cc3csc4ccccc34)C(=O)N[C@@H](CCC(N)=O)C(N)=O)NC(=O)[C@H](CCC(N)=O)NC(=O)[C@H](Cc3ccccc3)NC(=O)[C@H](C)NC(=O)[C@H](C)NC(=O)[C@H](CCC(=O)O)NC(=O)[C@H](CC(=O)O)NC1=O)NC(=O)[C@H](C)NC(=O)[C@H](CC(=O)O)NC2=O (some centres unmarked) [I-427] reads 50

***
The measured Solubility associated with CC[C@H](C)[C@@H]1NC(=O)[C@H](CC(=O)O)NC(=O)[C@]2(CC=CCCCC3(CCCC=CCCCCCC[C@@](C)(C(=O)N[C@@H](Cc4ccccc4)C(=O)N[C@@H](Cc4csc5ccccc45)C(=O)N[C@@H](CCC(N)=O)C(N)=O)NC(=O)[C@H](CCC(N)=O)NC(=O)[C@H](Cc4ccccc4)NC(=O)[C@H](C)NC(=O)[C@H](CCC(N)=O)NC(=O)[C@H](CCC(=O)O)NC(=O)[C@H](CC(=O)O)NC3=O)NC1=O)CCCN2C(C)=O (some centres unmarked) [I-653] reads 39
